System: MYB mRNA
Test method notes: Splicing RT-qPCR assay, canonical (CJ) and alternative (AJ) junction mRNA, K562 cells
Assay type: cell-based
Assay setup: Homo sapiens, K562.3 cells, 24 hours, read-out: MYB AJ (AC50, increase in AJ mRNA)
Recorded metric: AC50

INSERT INTO results (compound, result) VALUES
  ('Cc1cn2cc(NC(=O)c3ccc(N4CC[C@H](NCC(C)(C)O)C4)c4cn(C)nc34)cc(F)c2n1 [Compound 132]', '0.1 to 1 µM'),
  ('Cc1cn2cc(NC(=O)c3c(O)cc(N4CC[C@@H](NC5CC5)C4)c4cn(C)nc34)cc(F)c2n1 [Compound 288]', '< 0.1 µM'),
  ('CCNC1CCN(c2cc(F)c(C(=O)Nc3cn4cc(C)nc4c(F)c3OC)c3[nH]ncc23)CC1 [Compound 173]', '< 0.1 µM'),
  ('Cc1cn2cc(NC(=O)c3c(F)cc(N4CC[C@H](NCC56CC(CO5)C6)C4)c4cn(C)nc34)cc(F)c2n1 [Compound 157]', '< 0.1 µM'),
  ('Cc1cn2cc(NC(=O)c3ccc(N4CCC(NC5CC5)CC4)n4cc(C)nc34)cc(F)c2n1 [Compound 210]', '0.1 to 1 µM'),
  ('CNC1(C)CCN(c2cc(F)c(C(=O)Nc3cc(F)c4nc(C)cn4c3)c3nn(C)cc23)CC1 [Compound 179]', '< 0.1 µM'),
  ('COc1c(NC(=O)c2c(F)cc(N3CCNCC3)c3cn[nH]c23)cn2cc(C)nc2c1F [Compound 607]', '< 0.1 µM'),
  ('Cc1cn2cc(C(=O)Nc3c(F)cc(N4CCNCC4)c4cn[nH]c34)cc(F)c2n1 [Compound 267]', '> 10 µM'),
  ('Cc1cn2nc(NC(=O)c3ccc(N4CCC(NC5CC5)CC4)c4cn(C)nc34)cc(C)c2n1 [Compound 187]', '0.1 to 1 µM'),
  ('CN[C@H]1CCN(c2c(OC)cc(C(=O)Nc3cc(F)c4nc(C)cn4c3)c3nn(C)cc23)C1 [Compound 137]', '> 10 µM'),
  ('CCNC1CCN(c2ccc(C(=O)Nc3cc4cn(C)nc4cc3OC)c3[nH]ccc23)CC1 [Compound 178]', '> 10 µM'),
  ('Cc1cn2cc(NC(=O)c3ccc(N4C[C@@H](C)N[C@@H](C)C4)c4[nH]cnc34)cc(F)c2n1 [Compound 220]', '0.1 to 1 µM'),
  ('CCNC1CCN(c2ccc(C(=O)Nc3cn4cc(C)nc4c(F)c3OC)c3[nH]ncc23)CC1 [Compound 170]', '0.1 to 1 µM'),
  ('COCCN[C@H]1CCN(c2ccc(C(=O)Nc3cc(F)c4nc(C)cn4c3)c3nn(C)cc23)C1 [Compound 112]', '< 0.1 µM'),
  ('CCNC1CCN(c2ccc(C(=O)Nc3cc(F)c4nc(C)cn4c3)c3[nH]ccc23)CC1 [Compound 172]', '1 to 10 µM'),
  ('Cc1cn2cc(NC(=O)c3ccc(N4CCNCC4=O)c4[nH]cnc34)cc(F)c2n1 [Compound 257]', '> 10 µM'),
  ('CN[C@H]1CCN(c2ccc(C(=O)Nc3cc(F)c4nc(C)cn4c3)c3nn(C)cc23)[C@@H]1C (single isomer, unassigned) [Compound 154]', '0.1 to 1 µM'),
  ('CO[C@H]1C[C@@H](N[C@H]2CCN(c3ccc(C(=O)Nc4cc(F)c5nc(C)cn5c4)c4nn(C)cc34)C2)C1 [Compound 277]', '0.1 to 1 µM'),
  ('CN[C@H]1CCN(c2ccc(C(=O)Nc3cc(F)c4nc(C)cn4c3)c3nn(C)cc23)[C@H]1C (single isomer, unassigned) [Compound 152]', '1 to 10 µM'),
  ('Cc1cn2cc(NC(=O)c3ccc(N4CCC(NC5CC5(C)C)CC4)c4cn(C)nc34)cc(F)c2n1 (stereo not drawn) [Compound 205]', '< 0.1 µM'),
  ('Cc1cn2cc(NC(=O)c3ccc(N4CCNCC4=O)c4cn(C)nc34)cc(F)c2n1 [Compound 251, 2,2,2-trifluoroacetate]', '> 10 µM');
